ASSAY_TARGET: MRGPRX4 (Homo sapiens, UniProt Q96LA9)
Sequence (Q96LA9 whole entry): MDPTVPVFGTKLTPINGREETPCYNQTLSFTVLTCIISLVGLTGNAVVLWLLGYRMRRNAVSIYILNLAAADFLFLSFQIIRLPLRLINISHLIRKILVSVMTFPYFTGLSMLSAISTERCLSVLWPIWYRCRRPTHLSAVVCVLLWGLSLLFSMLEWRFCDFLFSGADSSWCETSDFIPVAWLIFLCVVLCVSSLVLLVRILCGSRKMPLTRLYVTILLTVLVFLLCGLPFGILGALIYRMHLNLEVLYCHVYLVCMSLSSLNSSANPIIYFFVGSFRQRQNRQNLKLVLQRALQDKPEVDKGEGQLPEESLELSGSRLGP
MEASUREMENT_DESCRIPTION: MRGPRX4 activation, Fluo-8 Ca2+ FLIPR assay in HEK293T cells stably expressing MRGPRX4
Format: cell-based
SETTINGS: Conc. (Log[M]) −8
ENDPOINT_LABEL: MRGPRX4 activation, fluorescence change (dF/F0), Average

MOLECULE: COC(=O)CC[C@@H](C)[C@H]1CC[C@H]2[C@@H]3/C(=N\OC(C)(C)C(=O)O)C[C@@H]4C[C@H](OC(C)=O)CC[C@]4(C)[C@H]3CC[C@]12C [1-3]
MEASURED_VALUE: −0.003
//
MOLECULE: CC[C@H]1[C@@H](OC(=O)c2cccc(I)c2)[C@@H]2[C@H](CC[C@]3(C)[C@@H]([C@H](C)CCC(=O)OC)CC[C@@H]23)[C@@]2(C)CCCC[C@@H]12 [1-5]
MEASURED_VALUE: −0.049
//
MOLECULE: CC[C@H]1[C@@H](OC(=O)c2cccc(I)c2)[C@H]2[C@@H]3[C@@H](O)C=C([C@H](C)CCC(=O)OC)[C@@]3(C)CC[C@@H]2[C@@]2(C)CCCC[C@@H]12 [3-3]
MEASURED_VALUE: −0.031
//
MOLECULE: CC[C@H]1[C@@H](O)[C@@H]2[C@H](CC[C@]3(C)[C@@H]([C@H](C)CC(=O)O)CC[C@@H]23)[C@@]2(C)CCCC[C@@H]12 [compound 26]
MEASURED_VALUE: −0.090
//
MOLECULE: CC[C@H]1[C@@H](O)[C@@H]2[C@H](CC[C@]3(C)[C@@H]([C@H](C)CCC(=O)NS(=O)(=O)CC)CC[C@@H]23)[C@@]2(C)CCCC[C@@H]12 [4-2]
MEASURED_VALUE: 0.009
//
MOLECULE: C[C@H](CC/C=C/C(=O)O)[C@H]1CC[C@H]2[C@@H]3CC[C@@H]4C[C@H](O)CC[C@]4(C)[C@H]3C[C@H](O)[C@]12C [RC-7]
MEASURED_VALUE: −0.030

* * *

# maps each entry to its MRGPRX4 activation, fluorescence change (dF/F0), Average
ASSAY_TARGET: UniProt:Q96LA9
MEASUREMENT_DESCRIPTION: MRGPRX4 activation, Fluo-8 Ca2+ FLIPR assay in HEK293T cells stably expressing MRGPRX4
Assay type: cell-based
SETTINGS: Conc. (Log[M]) −5.9
ENDPOINT_LABEL: MRGPRX4 activation, fluorescence change (dF/F0), Average

COMPOUND: CC[C@H]1[C@@H](O)[C@@H]2[C@H](CC[C@]3(C)[C@@H]([C@H](C)CCNC(=O)NS(=O)(=O)c4ccc(C(C)(CO)CO)cc4)CC[C@@H]23)[C@@]2(C)CCCC[C@@H]12 [5-22]
MEASURED_VALUE: 0.011
--
COMPOUND: CC[C@H]1[C@@H](O)[C@@H]2[C@H](CC[C@]3(C)[C@@H]([C@H](C)CCNC(=O)NS(=O)(=O)c4cc(F)cc(F)c4)CC[C@@H]23)[C@@]2(C)CCCC[C@@H]12 [5-24]
MEASURED_VALUE: 0.011
--
COMPOUND: CC[C@H]1[C@@H](O)[C@@H]2[C@H](CC[C@]3(C)[C@@H]([C@H](C)CCNC(=O)NS(=O)(=O)c4ccc(C(C)(C)C(N)=O)cc4)CC[C@@H]23)[C@@]2(C)CCCC[C@@H]12 [5-16]
MEASURED_VALUE: 0.020

* * *

ASSAY_TARGET: MRGPRX4 (Homo sapiens)
MEASUREMENT_DESCRIPTION: MRGPRX4 activation, Fluo-8 Ca2+ FLIPR assay in HEK293T cells stably expressing MRGPRX4
Format: cell-based
SETTINGS: E3-9, Conc. (Log[M]) −7.3
Reported MRGPRX4 activation, Average values for the following molecules.
ENDPOINT_LABEL: MRGPRX4 activation, Average

MOLECULE: CC[C@H]1[C@@H](O)[C@@H]2[C@H](CC[C@]3(C)[C@@H]([C@H](C)CCNC(=S)NS(=O)(=O)c4cccs4)CC[C@@H]23)[C@@]2(C)CCC(F)(F)C[C@@H]12 [11-3]
ASSAY_TARGET: MRGPRX4 (Homo sapiens)
ENDPOINT_LABEL: MRGPRX4 activation, Average
MEASURED_VALUE: 0.015
--
MOLECULE: CC[C@H]1[C@@H](O)[C@H]2[C@@H]3CC[C@](C)([C@H](C)CCNC(=O)NS(=O)(=O)C[C@]45CCC(CC4=O)C5(C)C)[C@H]3CC[C@@H]2[C@@]2(C)CC[C@H](F)C[C@@H]12 [9-5]
ASSAY_TARGET: MRGPRX4 (Homo sapiens)
ENDPOINT_LABEL: MRGPRX4 activation, Average
MEASURED_VALUE: 0.019
--
MOLECULE: CC[C@H]1[C@@H](O)[C@@H]2[C@H](CC[C@]3(C)[C@@H]([C@H](C)CCNC(=S)NS(=O)(=O)c4ccc(C(C)(C)CF)cc4)CC[C@@H]23)[C@@]2(C)CCC(F)(F)C[C@@H]12 [11-4]
ASSAY_TARGET: MRGPRX4 (Homo sapiens)
ENDPOINT_LABEL: MRGPRX4 activation, Average
MEASURED_VALUE: 0.015
--
MOLECULE: CC[C@H]1[C@@H](O)[C@@H]2[C@H](CC[C@]3(C)[C@@H]([C@H](C)CCC(=O)O)CC[C@@H]23)[C@@]2(C)CCC(F)(F)C[C@@H]12 [compound 55]
ASSAY_TARGET: MRGPRX4 (Homo sapiens)
ENDPOINT_LABEL: MRGPRX4 activation, Average
MEASURED_VALUE: 0.019
--
MOLECULE: CC[C@H]1[C@@H](O)[C@@H]2[C@H](CC[C@]3(C)[C@@H]([C@H](C)CCNC(=O)NS(=O)(=O)c4cc(F)ccc4F)CC[C@@H]23)[C@@]2(C)CCC(F)(F)C[C@@H]12 [10-2]
ASSAY_TARGET: MRGPRX4 (Homo sapiens)
ENDPOINT_LABEL: MRGPRX4 activation, Average
MEASURED_VALUE: 0.019
--
MOLECULE: CC[C@H]1[C@@H](O)[C@@H]2[C@H](CC[C@]3(C)[C@@H]([C@H](C)CCN=C=S)CC[C@@H]23)[C@@]2(C)CCCC[C@@H]12 [7-1]
ASSAY_TARGET: MRGPRX4 (Homo sapiens)
ENDPOINT_LABEL: MRGPRX4 activation, Average
MEASURED_VALUE: 0.008
--
MOLECULE: CC[C@H]1[C@@H](O)[C@@H]2[C@H](CC[C@]3(C)[C@@H]([C@H](C)CCNS(=O)(=O)CC(C)C)CC[C@@H]23)[C@@]2(C)CCCC[C@@H]12 [6-4]
ASSAY_TARGET: MRGPRX4 (Homo sapiens)
ENDPOINT_LABEL: MRGPRX4 activation, Average
MEASURED_VALUE: 0.018
--
MOLECULE: CC[C@H]1[C@@H](O)[C@@H]2[C@H](CC[C@]3(C)[C@@H]([C@H](C)CCNC(=O)NS(=O)(=O)c4ccc(Br)cc4OC(F)(F)F)CC[C@@H]23)[C@@]2(C)CC[C@H](F)C[C@@H]12 [9-6]
ASSAY_TARGET: MRGPRX4 (Homo sapiens)
ENDPOINT_LABEL: MRGPRX4 activation, Average
MEASURED_VALUE: 0.014
--
MOLECULE: CC[C@H]1[C@@H](O)[C@@H]2[C@H](CC[C@]3(C)[C@@H]([C@H](C)CCNC(=O)NS(=O)(=O)c4cc(F)cc(F)c4)CC[C@@H]23)[C@@]2(C)CCC(F)(F)C[C@@H]12 [10-3]
ASSAY_TARGET: MRGPRX4 (Homo sapiens)
ENDPOINT_LABEL: MRGPRX4 activation, Average
MEASURED_VALUE: 0.021
--
MOLECULE: CC[C@H]1[C@@H](O)[C@@H]2[C@H](CC[C@]3(C)[C@@H]([C@H](C)CCNC(=O)NS(=O)(=O)c4cccs4)CC[C@@H]23)[C@@]2(C)CC[C@H](F)C[C@@H]12 [9-4]
ASSAY_TARGET: MRGPRX4 (Homo sapiens)
ENDPOINT_LABEL: MRGPRX4 activation, Average
MEASURED_VALUE: 0.021
--
MOLECULE: [2H]C1([2H])CC[C@@]2(C)[C@@H](C1)[C@@H](CC)[C@@H](O)[C@@H]1[C@@H]2CC[C@]2(C)[C@@H]([C@H](C)CCN=C=S)CC[C@@H]12 [14-2]
ASSAY_TARGET: MRGPRX4 (Homo sapiens)
ENDPOINT_LABEL: MRGPRX4 activation, Average
MEASURED_VALUE: 0.013
